# assayMethodText: Human microsomal stability assay
# Assay type: in vitro ADME
# conditionParameters: human liver microsomes, 1 μM test compound, 0.5 mg/mL protein, 37° C., pH 7.4
measurementKind: CL (h) (mL/min/kg)
Field format: number, assumed mL/min/kg, no unit text.

Here are 5 compounds together with their reported answers.
{"compound": "C[C@@H]1CN(c2ccc(C#N)c3ncccc23)C[C@@H]2c3cnc(N4CCNCC4)cc3CN12", "reportedValue": 6.2}
{"compound": "C[C@@H]1CN(c2ccc(C#N)c3ncccc23)C[C@@H]2c3ccc(N4CCNCC4)nc3CN12", "reportedValue": 8.1}
{"compound": "C[C@@H]1CN(c2ccc(C#N)n3nccc23)C[C@@H]2c3ccc(N4C[C@@H]5C[C@H]4CN5)nc3CN12", "reportedValue": 6.6}
{"compound": "[2H]c1ccc2c(N3C[C@@H](C)N4Cc5nc(N6C[C@@H]7C[C@H]6CN7)ccc5[C@H]4C3)ccc(C#N)c2n1", "reportedValue": 6.2}
{"compound": "[2H]c1ccc2c(N3C[C@@H](C)N4Cc5nc(N6CC[C@@H](N)[C@H](OC)C6)ccc5[C@H]4C3)ccc(C#N)c2n1", "reportedValue": 7.1}

Exam item: Suppose we examine the compound "[2H]c1ccc2c(N3C[C@@H](C)N4Cc5nc(N6CC[C@](C)(N)C6)ccc5[C@H]4C3)ccc(C#N)c2n1" ; what CL (h) value has been reported?
Marked response: 6.2

Exam item: Return reported CL (h); argument: "[2H]c1ccc2c(N3C[C@@H](C)N4Cc5nc(N6CC[C@@](C)(N)C6)ccc5[C@H]4C3)ccc(C#N)c2n1"
Marked response: 6.2

###

Recorded IC50 by entry
# targetSystem: human TLR9 (Homo sapiens, UniProt Q9NR96)
# Sequence (Q9NR96 26-1032): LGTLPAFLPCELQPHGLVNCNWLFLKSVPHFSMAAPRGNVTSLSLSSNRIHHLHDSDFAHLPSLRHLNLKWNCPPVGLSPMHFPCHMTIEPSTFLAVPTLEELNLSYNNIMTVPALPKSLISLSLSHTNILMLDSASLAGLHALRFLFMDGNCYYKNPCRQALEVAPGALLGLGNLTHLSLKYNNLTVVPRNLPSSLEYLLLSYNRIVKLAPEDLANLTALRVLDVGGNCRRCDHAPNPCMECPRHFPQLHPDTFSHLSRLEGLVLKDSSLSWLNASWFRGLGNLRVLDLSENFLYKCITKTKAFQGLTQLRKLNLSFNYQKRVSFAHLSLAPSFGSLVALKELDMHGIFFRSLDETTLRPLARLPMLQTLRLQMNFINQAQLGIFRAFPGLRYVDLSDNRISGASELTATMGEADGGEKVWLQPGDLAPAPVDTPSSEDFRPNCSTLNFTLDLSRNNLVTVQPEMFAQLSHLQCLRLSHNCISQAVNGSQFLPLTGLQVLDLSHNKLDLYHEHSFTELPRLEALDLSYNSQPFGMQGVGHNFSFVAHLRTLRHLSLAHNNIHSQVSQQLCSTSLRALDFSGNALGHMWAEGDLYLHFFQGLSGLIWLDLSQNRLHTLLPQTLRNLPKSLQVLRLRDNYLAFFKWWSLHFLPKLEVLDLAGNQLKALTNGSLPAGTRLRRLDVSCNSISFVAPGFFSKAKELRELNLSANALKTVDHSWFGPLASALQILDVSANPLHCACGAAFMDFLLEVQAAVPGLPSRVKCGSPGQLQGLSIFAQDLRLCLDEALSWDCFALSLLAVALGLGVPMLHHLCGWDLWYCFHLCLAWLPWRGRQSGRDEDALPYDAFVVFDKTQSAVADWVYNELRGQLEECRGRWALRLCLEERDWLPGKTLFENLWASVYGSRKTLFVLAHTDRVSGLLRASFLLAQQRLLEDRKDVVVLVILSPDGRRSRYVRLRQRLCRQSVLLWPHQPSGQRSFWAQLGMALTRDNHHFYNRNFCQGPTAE
# assayMethodText: HEK293-Blue-hTLR-9 cells assay
# conditionParameters: HEK293-Blue-hTLR9 cells, ODN2006 stimulation, 20 hrs, SEAP reporter; read-out: HEK/hTLR9 IC50
Respond with the bare value in µM.

{"compoundStructureString": "C[C@@H]1CN(c2ccc(C#N)c3ncccc23)C[C@@H]2c3ccc(N4CCCNCC4)nc3CN12", "targetSystem": "human TLR9 (Homo sapiens, UniProt Q9NR96)", "valueUnit": "µM", "IC50": 0.206}

Exam item: Using the record for "CC1(N)CCN(c2ccc3c(n2)CN2CCN(c4ccc(C#N)c5ncccc45)C[C@@H]32)CC1" , report its IC50.
Marked response: 0.0566

Exam item: Which measured IC50 value corresponds to "[2H]c1ccc2c(N3C[C@@H](C)N4Cc5nc(N6CC[C@H](N)[C@H](OC)C6)ccc5[C@H]4C3)ccc(C#N)c2n1" ?
Marked response: 0.289

Exam item: What does the record list as IC50 for "[2H]c1ccc2c(N3C[C@@H](C)N4Cc5nc(N6CCC7(CC6)CNCCO7)ccc5[C@H]4C3)ccc(C#N)c2n1" ?
Marked response: 0.262

Exam item: Consider the compound shown here: "N#Cc1ccc(N2CCN3Cc4nc(N5CCNCC5)ccc4[C@@H]3C2)c2cccnc12" What is its recorded IC50?
Marked response: 0.142

Exam item: Reported IC50, compound "[2H]c1ccc2c(N3C[C@@H](C)N4Cc5nc(N6C[C@@H]7C[C@H]6CN7)ccc5[C@H]4C3)ccc(C#N)c2n1" : ____
Marked response: 0.121

Exam item: Report IC50 for "[2H]c1ccc2c(N3C[C@@H](C)N4Cc5nc(OC6CCNCC6)ccc5[C@H]4C3)ccc(C#N)c2n1" please.
Marked response: 0.118
